Molecular target: T1, VLP2 (virus-like particles of AAV2) (AAV2, UniProt P03135 1-735; P03135 1-598; P03135 1-533)
T1 construct: Empty AAV2 capsid; background says about 60 protein molecules, VP1:VP2:VP3 = 1:1:10; Immobilised on the ELISA plate
T1 sequence (P03135 whole entry, chain 1 of 3): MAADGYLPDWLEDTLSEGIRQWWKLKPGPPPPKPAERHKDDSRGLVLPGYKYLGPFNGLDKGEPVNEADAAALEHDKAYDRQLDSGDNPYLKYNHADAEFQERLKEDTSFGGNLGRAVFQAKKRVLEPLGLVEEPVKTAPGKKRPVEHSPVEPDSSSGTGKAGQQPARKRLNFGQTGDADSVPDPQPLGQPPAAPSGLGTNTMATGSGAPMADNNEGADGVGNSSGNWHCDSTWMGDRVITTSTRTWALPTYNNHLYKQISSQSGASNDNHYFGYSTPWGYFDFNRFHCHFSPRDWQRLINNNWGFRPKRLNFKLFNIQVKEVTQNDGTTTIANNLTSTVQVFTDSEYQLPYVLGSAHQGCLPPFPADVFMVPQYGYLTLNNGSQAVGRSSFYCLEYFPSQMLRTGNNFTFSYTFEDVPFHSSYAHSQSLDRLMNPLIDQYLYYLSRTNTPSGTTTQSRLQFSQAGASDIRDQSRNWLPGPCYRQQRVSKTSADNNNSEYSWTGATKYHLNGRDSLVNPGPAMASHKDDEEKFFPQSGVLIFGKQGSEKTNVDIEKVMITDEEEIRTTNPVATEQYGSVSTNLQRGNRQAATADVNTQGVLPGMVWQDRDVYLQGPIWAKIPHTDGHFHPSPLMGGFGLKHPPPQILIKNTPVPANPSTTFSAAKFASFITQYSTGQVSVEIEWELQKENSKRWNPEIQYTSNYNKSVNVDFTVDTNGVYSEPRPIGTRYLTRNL
T1 sequence (P03135 139-735, tags left off, chain 2 of 3): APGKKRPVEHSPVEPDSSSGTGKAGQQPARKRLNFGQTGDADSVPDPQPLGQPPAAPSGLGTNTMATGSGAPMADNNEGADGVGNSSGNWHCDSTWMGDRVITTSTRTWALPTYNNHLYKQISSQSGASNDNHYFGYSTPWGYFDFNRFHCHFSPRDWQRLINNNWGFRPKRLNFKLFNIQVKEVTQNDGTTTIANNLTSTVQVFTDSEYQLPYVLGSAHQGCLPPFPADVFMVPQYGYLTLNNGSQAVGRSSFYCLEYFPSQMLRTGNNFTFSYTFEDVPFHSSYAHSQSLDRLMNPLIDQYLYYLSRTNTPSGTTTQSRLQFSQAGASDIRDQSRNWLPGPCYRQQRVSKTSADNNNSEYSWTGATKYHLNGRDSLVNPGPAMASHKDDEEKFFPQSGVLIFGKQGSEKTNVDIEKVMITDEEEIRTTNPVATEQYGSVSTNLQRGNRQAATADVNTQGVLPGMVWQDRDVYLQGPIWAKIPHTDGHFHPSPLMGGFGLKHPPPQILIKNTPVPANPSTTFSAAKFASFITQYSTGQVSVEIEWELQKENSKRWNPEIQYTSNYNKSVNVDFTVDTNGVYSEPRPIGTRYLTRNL
T1 sequence (P03135 203-735, chain 3 of 3): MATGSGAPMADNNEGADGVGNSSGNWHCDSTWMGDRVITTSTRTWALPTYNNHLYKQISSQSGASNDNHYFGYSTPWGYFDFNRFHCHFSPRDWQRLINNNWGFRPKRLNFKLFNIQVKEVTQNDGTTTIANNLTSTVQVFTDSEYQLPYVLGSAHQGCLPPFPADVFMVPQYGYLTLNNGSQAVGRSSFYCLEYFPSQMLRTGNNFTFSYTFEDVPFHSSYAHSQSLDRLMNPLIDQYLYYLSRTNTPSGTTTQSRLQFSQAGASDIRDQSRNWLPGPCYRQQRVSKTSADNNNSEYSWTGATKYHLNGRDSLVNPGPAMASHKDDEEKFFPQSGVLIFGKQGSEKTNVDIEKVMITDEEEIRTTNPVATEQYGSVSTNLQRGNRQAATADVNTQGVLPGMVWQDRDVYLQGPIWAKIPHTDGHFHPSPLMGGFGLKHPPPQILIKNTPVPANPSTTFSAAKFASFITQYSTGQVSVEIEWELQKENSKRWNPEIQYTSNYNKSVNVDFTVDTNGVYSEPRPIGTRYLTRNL
Assay: ELISA on VLP2; binding after 43°C 15 min / untreated
I'd appreciate it if you could supply Residual activity [%] values for the items below.
The answer should read as a number with its unit following.

Need Residual activity [%], item AAV-binding protein No. 13 (Gly357Cys) (receptor) MGSAGESVQITLPKNEVQLNAYVLQEPPKGETYTYDWQLITHPRDYSCEMEGKHSQILKLSKLTPGLYEFKVIVEGQNAHGEGYVNVTVKPEPRKNRPPIAIVSPQFQEISLPTTSTVIDGSQSTDDDKIVQYHWEELKGPLREEKISEDTAILKLSKLVPGNYTFSLTVVDSDGATNSTTANLTVNKAVDHHHHHH 97%

Would you kindly repeat that for AAV-binding protein No. 38 (Gln365Arg, Gln415Leu) (receptor) MGSAGESVQITLPKNEVQLNAYVLQEPPKGETYTYDWQLITHPRDYSGEMEGKHSRILKLSKLTPGLYEFKVIVEGQNAHGEGYVNVTVKPEPRKNRPPIAIVSPLFQEISLPTTSTVIDGSQSTDDDKIVQYHWEELKGPLREEKISEDTAILKLSKLVPGNYTFSLTVVDSDGATNSTTANLTVNKAVDHHHHHH ? 65.3%

Would you kindly repeat that for AAV-binding protein No. 19 (Val396Ala) (receptor) MGSAGESVQITLPKNEVQLNAYVLQEPPKGETYTYDWQLITHPRDYSGEMEGKHSQILKLSKLTPGLYEFKVIVEGQNAHGEGYVNATVKPEPRKNRPPIAIVSPQFQEISLPTTSTVIDGSQSTDDDKIVQYHWEELKGPLREEKISEDTAILKLSKLVPGNYTFSLTVVDSDGATNSTTANLTVNKAVDHHHHHH ? 62.3%

Would you kindly repeat that for AAV-binding protein No. 54 (His363Leu, Ser364Pro, His389Leu) (receptor) MGSAGESVQITLPKNEVQLNAYVLQEPPKGETYTYDWQLITHPRDYSGEMEGKLPQILKLSKLTPGLYEFKVIVEGQNALGEGYVNVTVKPEPRKNRPPIAIVSPQFQEISLPTTSTVIDGSQSTDDDKIVQYHWEELKGPLREEKISEDTAILKLSKLVPGNYTFSLTVVDSDGATNSTTANLTVNKAVDHHHHHH ? 87.2%

Would you kindly repeat that for wild-type AAV-binding protein (extracellular domains 1 and 2, PKD1 and PKD2, of KIAA0319L/AAVR, positions 312-500 of SEQ ID NO: 1, with His tag) (receptor, Expressed in E. coli; tested as extract, culture supernatant or purified protein; also called wild-type AVR; product of pET-AAVRD2) MGSAGESVQITLPKNEVQLNAYVLQEPPKGETYTYDWQLITHPRDYSGEMEGKHSQILKLSKLTPGLYEFKVIVEGQNAHGEGYVNVTVKPEPRKNRPPIAIVSPQFQEISLPTTSTVIDGSQSTDDDKIVQYHWEELKGPLREEKISEDTAILKLSKLVPGNYTFSLTVVDSDGATNSTTANLTVNKAVDHHHHHH ? 43.4%

Would you kindly repeat that for AAV-binding protein No. 7 (Leu348Pro) (receptor) MGSAGESVQITLPKNEVQLNAYVLQEPPKGETYTYDWQPITHPRDYSGEMEGKHSQILKLSKLTPGLYEFKVIVEGQNAHGEGYVNVTVKPEPRKNRPPIAIVSPQFQEISLPTTSTVIDGSQSTDDDKIVQYHWEELKGPLREEKISEDTAILKLSKLVPGNYTFSLTVVDSDGATNSTTANLTVNKAVDHHHHHH ? 69.6%
